- Procedure text: qHTS assay for small molecule activators of the p53 signaling pathway (AID 651743); further: potency means the concentration at half of the fitted maximal effect
- Cond: HCT-116 p53RE-bla, beta-lactamase FRET ratio, 16 h
Results filed as inconclusive are left out. Activity calls are given as the source filed them. The call rests on the fitted dose curve; in most records, active means well fitted activation curve with a large enough effect in the signal ratio (not every such curve was filed as active); inconclusive means small, poorly fitted or top-dose-only effect, or a change in a side signal; inactive means flat fitted curve, though single readings scatter; the % refers to the signal ratio.
Measurement kind: Potency

A selection of reference data follows.
>>> data_value("CC1(c2ccc(Oc3ccccc3)cc2)OC(=O)N(Nc2ccccc2)C1=O (stereo unspecified)")
"5.01 µM (active)"
>>> data_value("COC(=O)N(OC)c1ccccc1COc1ccn(-c2ccc(Cl)cc2)n1")
"5.01 µM (active)"
>>> data_value("N#CSCSC#N")
"25.1 µM (active)"
>>> data_value("CON=C(C(=O)OC)c1ccccc1CO/N=C(\\C)c1cccc(C(F)(F)F)c1")
"5.01 µM (active)"
>>> data_value("Cc1ccc(-c2c(Cl)nc(C#N)n2S(=O)(=O)N(C)C)cc1")
"28.2 µM (active)"

Q) Which Potency is reported for this compound? "N#Cc1cc(I)c(O)c(I)c1"
A) 44.7 µM (active)
